Tested on: Norovirus
assay explanation: Antiviral activity against Norovirus
Format: functional
measurement kind: EC50

Nc1ncc(Br)c2c1ncn2C1=C[C@@H](CO)[C@H](O)[C@@H]1O = 1.3 µM

----------
assay explanation: Cytotoxicity against human HepG2 cells
Assay type: cell-based
measurement kind: CC50

Nc1nccc2c1ncn2C1=C[C@H](CO)[C@@H](O)[C@H]1O = > 100 µM
Nc1nccc2c1ncn2C1=C[C@@H](CO)[C@H](O)[C@@H]1O = > 100 µM
Nc1ncc(Br)c2c1ncn2[C@@H]1C=C(CO)[C@@H](O)[C@H]1O = 21.1 µM

----------
assay explanation: Selectivity index, ratio of CC50 for human HepG2 cells to EC50 for Zaire ebolavirus
Type: toxicity, cell-based
condition notes: read-out: Ratio CC50/EC50
measurement kind: selectivity ratio

Nc1ncc(Br)c2c1ncn2[C@@H]1C=C(CO)[C@@H](O)[C@H]1O = > 67
